targetSystem: hNK3R (Homo sapiens, UniProt P29371)
Sequence (P29371 1-465): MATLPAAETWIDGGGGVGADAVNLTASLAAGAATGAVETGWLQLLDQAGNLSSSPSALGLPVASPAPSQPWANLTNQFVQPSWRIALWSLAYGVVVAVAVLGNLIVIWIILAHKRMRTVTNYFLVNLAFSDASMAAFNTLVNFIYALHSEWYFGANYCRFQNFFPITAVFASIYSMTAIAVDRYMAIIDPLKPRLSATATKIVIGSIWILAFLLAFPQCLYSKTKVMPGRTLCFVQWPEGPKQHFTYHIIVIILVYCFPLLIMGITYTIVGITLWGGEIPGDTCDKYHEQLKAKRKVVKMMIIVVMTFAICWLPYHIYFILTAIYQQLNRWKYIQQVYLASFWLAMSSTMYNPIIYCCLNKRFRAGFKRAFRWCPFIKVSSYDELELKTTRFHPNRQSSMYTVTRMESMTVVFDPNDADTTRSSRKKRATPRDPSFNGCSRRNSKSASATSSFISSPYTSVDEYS
experiment: IP3 assay (inositol trisphosphate, 3H-myoinositol) in transiently transfected COS-7 cells
conditionLabel: COS-7 cells, 0.2% ovalbumin buffer; read-out: hNK3, IP3 EC50
Numbered stars: 1 amine (or outer) side, 2 acyl side, 3 side chain; on linkers, the order of the positions; unused ones are H or OH. Square brackets hold non-standard residues; d marks the D form. Peptide text beside a SMILES is read from it. * marks the point of attachment. C18 diacid = O=C(O)CCCCCCCCCCCCCCCCC(=O)*; γGlu = O=C(O)[C@H](CCC(=O)[*:2])N[*:1]; Stearoyl = CCCCCCCCCCCCCCCCCC(=O)*; NMeL = CN[C@@H](CC(C)C)C(=O)O; hSer = N[C@@H](CCO)C(=O)O; Nle = CCCC[C@H](N)C(=O)O; AEEA = NCCOCCOCC(=O)O
experimentalEndpoint: EC50 (nM)
Answers are plain numbers, in nM.

COCC[C@H](NC(=O)[C@H](CC(C)C)N(C)C(=O)CNC(=O)[C@@H](NC(=O)[C@H](Cc1ccccc1)NC(=O)[C@H](CCCCN)NC(=O)[C@H](CC(=O)O)NC(=O)COCCOCCNC(=O)COCCOCCNC(=O)CC[C@H](NC(=O)CCCCCCCCCCCCCCCCC(=O)O)C(=O)O)C(C)C)C(N)=O [compound 384, *Asp;Lys;Phe;Val;Gly;NmLeu;Metox;NH2] ({C18 diacid-γGlu-AEEA-AEEA}-DKFVG[NMeL][hSer](Me)-NH2) :: 10

We next turn to a different compound, shown below.
Recorded EC50 (compound CCCCCCCCCCCCCCCCCC(=O)N[C@@H](CCC(=O)NCCOCCOCC(=O)NCCOCCOCC(=O)N[C@@H](CC(=O)O)C(=O)N[C@@H](CCCCN)C(=O)N[C@@H](Cc1ccc(O)cc1)C(=O)N[C@H](C(=O)NCC(=O)N(C)[C@@H](CC(C)C)C(=O)N[C@@H](CCCC)C(N)=O)C(C)C)C(=O)O [compound 390, *Asp;Lys;Tyr;Val;Gly;NmLeu;Nle;NH2] ({Stearoyl-γGlu-AEEA-AEEA}-DKYVG[NMeL][Nle]-NH2) ): 14

====

targetSystem: hNK3R (Homo sapiens, UniProt P29371)
Construct: host or cells: COS-7
Sequence (P29371 1-465): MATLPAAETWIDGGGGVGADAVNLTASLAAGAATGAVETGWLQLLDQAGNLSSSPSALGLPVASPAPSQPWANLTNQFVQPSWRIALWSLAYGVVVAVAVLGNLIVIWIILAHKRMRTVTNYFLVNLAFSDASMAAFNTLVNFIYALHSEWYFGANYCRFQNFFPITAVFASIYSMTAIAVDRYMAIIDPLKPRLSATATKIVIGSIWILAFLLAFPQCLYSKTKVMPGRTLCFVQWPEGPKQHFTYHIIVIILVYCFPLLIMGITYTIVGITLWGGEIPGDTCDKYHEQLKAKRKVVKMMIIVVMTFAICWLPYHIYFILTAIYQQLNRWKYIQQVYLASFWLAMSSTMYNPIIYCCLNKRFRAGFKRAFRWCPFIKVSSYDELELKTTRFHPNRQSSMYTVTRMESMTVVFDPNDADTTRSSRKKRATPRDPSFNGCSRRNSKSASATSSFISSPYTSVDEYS
experiment: IP3 assay (inositol trisphosphate, 3H-myoinositol) in transiently transfected COS-7 cells
Type: cell-based
conditionLabel: COS-7 cells; figure legends: percent of 10^-6 M NKA
experimentalEndpoint: hNK3, IP3 Efficacy (%)
Numbers only, in %.

CCCC[C@H](NC(=O)[C@H](CC(C)C)N(C)C(=O)CNC(=O)[C@@H](NC(=O)[C@H](Cc1ccccc1)NC(=O)[C@H](CCCCNC(=O)COCCOCCNC(=O)COCCOCCNC(=O)CC[C@H](NC(=O)CCCCCCCCCCCCCCCCC(=O)O)C(=O)O)NC(=O)[C@@H](N)CC(=O)O)C(C)C)C(N)=O :: 85

We next turn to a different compound, shown below.
Recorded hNK3, IP3 Efficacy (compound CCCC[C@H](NC(=O)[C@H](CC(C)C)N(C)C(=O)CNC(=O)[C@@H](NC(=O)[C@H](Cc1ccccc1)NC(=O)[C@H](CO)NC(=O)[C@H](CC(=O)O)NC(=O)[C@@H](NC(=O)[C@H](CCCCN)NC(=O)COCCOCCNC(=O)COCCOCCNC(=O)CC[C@H](NC(=O)CCCCCCCCCCCCCCCCC(=O)O)C(=O)O)[C@@H](C)O)C(C)C)C(N)=O ): 80
